# Assay System: mouse κ-opioid receptor (KOR) tagged with EGFP (mouse, UniProt P33534 1-380)
# Sequence (P33534 whole entry): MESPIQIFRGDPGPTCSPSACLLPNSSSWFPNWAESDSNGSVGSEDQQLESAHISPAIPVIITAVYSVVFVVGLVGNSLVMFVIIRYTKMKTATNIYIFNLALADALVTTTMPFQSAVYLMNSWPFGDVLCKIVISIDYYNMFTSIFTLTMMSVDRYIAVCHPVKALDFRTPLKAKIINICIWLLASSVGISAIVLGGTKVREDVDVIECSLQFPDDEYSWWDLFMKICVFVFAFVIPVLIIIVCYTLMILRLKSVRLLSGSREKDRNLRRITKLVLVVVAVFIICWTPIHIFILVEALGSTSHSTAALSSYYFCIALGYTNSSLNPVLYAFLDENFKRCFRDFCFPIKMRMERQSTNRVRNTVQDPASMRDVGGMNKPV
# Measurement Protocol: cell-based or functional assay
Bridge positions count the residues as written; N and C are the ends.
Value Kind: cAMP inhibition in HEK293 cells stably expressing the mouse KOR, EC50 (nM)
Give bare numbers, in nM.

cAMP inhibition in HEK293 cells stably expressing the mouse KOR, EC50 in this record for cyclo(CYGGFLRRICFPDGR) (disulfide 1-10 (inferred), source: synthetic peptide (Fmoc chemistry, backbone cyclised, oxidised, RP-HPLC purified)) [helianorphin-3] : 1400

For every item in the list below, what is its measured cAMP inhibition in HEK293 cells stably expressing the mouse KOR, EC50?
1. cyclo(CYGGFLRRCIRPKLK) (disulfide 1-9 (inferred), dyn A 1–13 divided into two fragments (YGGFLRR and IRPKLK) placed in the two loops of the SFTI-1 scaffold; source: synthetic peptide (Fmoc chemistry, backbone cyclised, oxidised, RP-HPLC purified)) [helianorphin-19]
2. cyclo(CTKSIPPICYGGFLRRIRPKLK) (disulfide 1-9 (inferred), source: synthetic peptide (Fmoc chemistry, backbone cyclised, oxidised, RP-HPLC purified)) [helianorphin-2]
3. cyclo(CTKSIPPICYGGFLRRI) (disulfide 1-9 (inferred), source: synthetic peptide (Fmoc chemistry, backbone cyclised, oxidised, RP-HPLC purified)) [helianorphin-4]

45
1300
4700
